Biological target: GlunN1/GluN2A glutamate receptors (Homo sapiens, UniProt Q05586+Q12879)
Sequence (Q12879 23-1464, other chains not shown): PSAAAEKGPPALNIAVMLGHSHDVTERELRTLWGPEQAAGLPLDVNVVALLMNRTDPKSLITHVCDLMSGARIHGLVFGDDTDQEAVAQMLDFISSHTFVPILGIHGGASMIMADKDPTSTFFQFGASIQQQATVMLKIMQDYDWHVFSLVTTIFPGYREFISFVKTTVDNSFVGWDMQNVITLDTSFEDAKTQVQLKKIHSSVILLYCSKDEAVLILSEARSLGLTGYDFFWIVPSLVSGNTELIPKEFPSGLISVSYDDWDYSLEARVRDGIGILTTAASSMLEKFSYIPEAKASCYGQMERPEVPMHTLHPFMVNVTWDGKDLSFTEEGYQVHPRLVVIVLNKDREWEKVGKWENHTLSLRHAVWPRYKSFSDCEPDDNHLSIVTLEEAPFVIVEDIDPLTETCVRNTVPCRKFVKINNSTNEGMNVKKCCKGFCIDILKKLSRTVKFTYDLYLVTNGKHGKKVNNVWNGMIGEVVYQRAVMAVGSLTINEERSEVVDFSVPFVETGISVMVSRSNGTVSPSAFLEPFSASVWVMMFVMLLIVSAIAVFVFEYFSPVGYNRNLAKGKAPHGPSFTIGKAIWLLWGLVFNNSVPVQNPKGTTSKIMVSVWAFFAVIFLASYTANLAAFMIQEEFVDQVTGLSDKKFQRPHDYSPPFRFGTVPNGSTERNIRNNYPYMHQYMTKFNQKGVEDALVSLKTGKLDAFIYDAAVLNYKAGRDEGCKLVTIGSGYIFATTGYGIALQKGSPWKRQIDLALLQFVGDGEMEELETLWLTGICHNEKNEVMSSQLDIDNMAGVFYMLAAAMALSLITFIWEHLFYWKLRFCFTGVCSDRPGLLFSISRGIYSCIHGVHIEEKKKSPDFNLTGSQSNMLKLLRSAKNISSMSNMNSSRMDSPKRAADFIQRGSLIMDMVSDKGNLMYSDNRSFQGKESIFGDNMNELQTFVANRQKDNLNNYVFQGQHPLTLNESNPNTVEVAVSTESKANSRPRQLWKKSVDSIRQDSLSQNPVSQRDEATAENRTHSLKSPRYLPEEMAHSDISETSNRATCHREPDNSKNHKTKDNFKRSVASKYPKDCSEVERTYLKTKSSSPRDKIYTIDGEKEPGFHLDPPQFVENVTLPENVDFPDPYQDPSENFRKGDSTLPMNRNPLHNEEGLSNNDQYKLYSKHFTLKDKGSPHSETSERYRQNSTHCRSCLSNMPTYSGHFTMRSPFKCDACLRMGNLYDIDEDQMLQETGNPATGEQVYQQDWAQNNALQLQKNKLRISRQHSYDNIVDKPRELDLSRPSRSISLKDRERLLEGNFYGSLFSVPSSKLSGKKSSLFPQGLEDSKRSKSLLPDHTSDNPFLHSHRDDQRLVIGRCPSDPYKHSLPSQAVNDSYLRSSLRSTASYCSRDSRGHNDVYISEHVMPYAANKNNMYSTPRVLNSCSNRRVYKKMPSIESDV
Assay: Whole-cell patch clamp of mammalian cells (Ionworks Barracuda), positive allosteric modulation (PAM) of NMDA receptor, 2A
Conditions: HEK293 cells; co-application with EC20 L-glutamate and 30 µM glycine; 8-point concentration-response
# EC50 annotations
measure.name: EC50 (nM)

1) C[C@H](CCC[C@H](O)C(F)(F)F)[C@H]1CC[C@H]2[C@@H]3CC[C@H]4C[C@](O)(C(F)(F)F)CC[C@]4(C)[C@H]3CC[C@]12C    729
2) C[C@H](CCC[C@@H](O)C(C)(C)C)[C@H]1CC[C@H]2[C@@H]3CC[C@H]4C[C@](O)(C(F)(F)F)CC[C@]4(C)[C@H]3CC[C@]12C    506

====

Target: GlunN1/GluN2A glutamate receptors (Homo sapiens, UniProt Q05586+Q12879)
Construct: expressed in transfected cells
Test: Whole-cell patch clamp of mammalian cells (Ionworks Barracuda), positive allosteric modulation (PAM) of NMDA receptor, 2A
Assay type: cell-based
Details: HEK293, HEK293 cells; % activation of current elicited with EC20 L-glutamate and 30 µM glycine
Ranges used to classify Emax: low end (below 200%), middle (200% to below 300%), high end (300% or more)

1. CC[C@]1(O)CC[C@@]2(C)C(=CC[C@H]3[C@@H]4CC[C@H]([C@H](C)CC[C@H](O)c5ccc(F)cc5)[C@@]4(C)CC[C@@H]32)C1    low end
2. C[C@H](CCC1(O)CCOC1)[C@H]1CC[C@H]2[C@@H]3CC=C4C[C@](O)(C(F)(F)F)CC[C@]4(C)[C@H]3CC[C@]12C (stereo partly drawn)    high end
3. CC[C@]1(O)CC[C@@]2(C)C(=CC[C@H]3[C@@H]4CC[C@H]([C@H](C)CC[C@@H](O)c5ccccc5F)[C@@]4(C)CC[C@@H]32)C1    middle
4. CC[C@]1(O)CC[C@H]2C(=CC[C@@H]3[C@@H]2CC[C@]2(C)[C@@H]([C@H](C)CC[C@H](O)C(C)C)CC[C@@H]32)C1    middle
5. C[C@H](CCC1(O)CCC(C(C)(C)C)CC1)[C@H]1CC[C@H]2[C@@H]3CC[C@H]4C[C@](O)(C(F)(F)F)CC[C@]4(C)[C@H]3CC[C@]12C (stereo partly drawn)    low end
6. C[C@H](CC[C@H](O)C(C)(C)C)[C@H]1CC[C@H]2[C@@H]3CC=C4C[C@](O)(C(F)(F)F)CC[C@]4(C)[C@H]3CC[C@]12C    low end
7. C[C@H](CCC1(O)CCC(F)(F)CC1)[C@H]1CC[C@H]2[C@@H]3CC=C4C[C@](O)(C(F)(F)F)CC[C@]4(C)[C@H]3CC[C@]12C    middle
8. C[C@H](CC[C@H](O)C(C)(C)C)[C@H]1CC[C@H]2[C@@H]3CC[C@@H]4C[C@](O)(C(F)(F)F)CC[C@]4(C)[C@H]3CC[C@]12C    middle
9. CC[C@]1(O)CC[C@H]2C(=CC[C@@H]3[C@@H]2CC[C@]2(C)[C@@H]([C@H](C)CCC4(O)CCOC4)CC[C@@H]32)C1 (stereo partly drawn)    high end

====

Target: GlunN1/GluN2A glutamate receptors (Homo sapiens, UniProt Q05586+Q12879)
Construct: expressed in transfected cells
Experiment: Whole-cell patch clamp of mammalian cells (Ionworks Barracuda), positive allosteric modulation (PAM) of NMDA receptor, 2A
Format: cell-based
Conditions: HEK293 cells; % activation of current elicited with EC20 L-glutamate and 30 µM glycine
measure.name: Avg Emax 2A (%)

1. CC(C)[C@H](O)CC[C@@H](C)[C@H]1CC[C@H]2[C@@H]3CC[C@H]4C[C@@](C)(O)CC[C@@H]4[C@H]3CC[C@]12C    278.8
2. C[C@H](CCC[C@H](O)C(C)(C)C)[C@H]1CC[C@H]2[C@@H]3CC[C@H]4C[C@](O)(C(F)(F)F)CC[C@]4(C)[C@H]3CC[C@]12C    43.2
3. C[C@H](CCC[C@H](O)C(F)(F)F)[C@H]1CC[C@H]2[C@@H]3CC[C@H]4C[C@](O)(C(F)(F)F)CC[C@]4(C)[C@H]3CC[C@]12C    113.4
4. C[C@H](CCC(O)Cc1ccccc1)[C@H]1CC[C@H]2[C@@H]3CC=C4C[C@@](C)(O)CC[C@]4(C)[C@H]3CC[C@]12C (some centres unmarked)    195.2
5. C[C@H](CCC1(O)CCC(OC(F)F)CC1)[C@H]1CC[C@H]2[C@@H]3CC[C@H]4C[C@](O)(C(F)(F)F)CC[C@]4(C)[C@H]3CC[C@]12C (some centres unmarked)    52.9
6. C[C@H](CCC1(O)CCOCC1)[C@H]1CC[C@H]2[C@@H]3CC[C@H]4C[C@](O)(C(F)(F)F)CC[C@]4(C)[C@H]3CC[C@]12C    151.2
7. C[C@H](CCC1(O)CCC(C)(C)CC1)[C@H]1CC[C@H]2[C@@H]3CC[C@@H]4C[C@](O)(C(F)(F)F)CC[C@]4(C)[C@H]3C(=O)C[C@]12C    32.4
8. CC[C@]1(O)CC[C@H]2C(=CC[C@@H]3[C@@H]2CC[C@]2(C)[C@@H]([C@H](C)CCC[C@@H](O)C(C)C)CC[C@@H]32)C1    146.3
9. CC(C)[C@@H](O)CC[C@@H](C)[C@H]1CC[C@H]2[C@@H]3CC[C@H]4C[C@@](C)(O)CC[C@@H]4[C@H]3CC[C@]12C    457.2
10. C[C@H](CCC[C@@H](O)C(C)(C)C)[C@H]1CC[C@H]2[C@@H]3CC[C@H]4C[C@](O)(C(F)(F)F)CC[C@]4(C)[C@H]3CC[C@]12C    113.8
11. C[C@H](CCC[C@@H](C)O)[C@H]1CC[C@H]2[C@@H]3CC[C@H]4C[C@](O)(C(F)(F)F)CC[C@]4(C)[C@H]3CC[C@]12C    92.6
